- Tested on: nitric oxide (NO) production in RAW264.7 macrophages
- ASSAY DETAILS: In vitro anti-inflammatory activity: nitric oxide production (Griess) in LPS-exposed RAW264.7 macrophages
- Format: cell-based, mouse
- PROTOCOL CONDITIONS: Mus musculus, RAW264.7; 5 μM, LPS 24 hrs; read-out: % NO Inhibition ± SD
I'd appreciate it if you could supply inhibition at 5 µM values for the items below.
Answers are plain numbers, in %.

Known results for compounds:
C=C(C)[C@@H]1CCC(C)=C[C@H]1c1c(O)cc(CCCCC)c(CN2CCN(c3ccccc3)CC2)c1O 8.6
C=C(C)[C@@H]1CCC(C)=C[C@H]1c1c(O)cc(CCCCC)cc1O 24.3
C=C(C)[C@@H]1CCC(C)=C[C@H]1c1c(O)cc(CCCCC)c(CN2CCN(c3ccc(Cl)cc3)CC2)c1O 8.5
C=C(C)[C@@H]1CCC(C)=C[C@H]1c1c(O)cc(CCCCC)c(CN2CCC(c3ccccc3)CC2)c1O 5.8
C=C(C)[C@@H]1CCC(C)=C[C@H]1c1c(O)cc(CCCCC)c(CN2CCN(CCO)CC2)c1O 48.9

For each of the compounds below, note its inhibition at 5 µM.
1. C=C(C)[C@@H]1CCC(C)=C[C@H]1c1c(O)cc(CCCCC)c(CN2CCN(C3CC3)CC2)c1O
2. C=C(C)[C@@H]1CCC(C)=C[C@H]1c1c(O)cc(CCCCC)c(CN2CCN(C(C)=O)CC2)c1O

[12, 15.6]

Please indicate inhibition at 5 µM recorded for "C=C(C)[C@@H]1CCC(C)=C[C@H]1c1c(O)cc(CCCCC)c(CNc2cnccn2)c1O"
11.5

====

- ASSAY DETAILS: Cell viability assay in macrophage RAW264.7 cells (MTT)
- Format: cell-based
- PROTOCOL CONDITIONS: mouse, RAW264.7, 5 μM, read-out: % cell viability ± SD
PROPERTY NAME: viability at 24 h, 5 µM (%)
Numbers only, in %.

Known results for compounds:
C=C(C)[C@@H]1CCC(C)=C[C@H]1c1c(O)cc(CCCCC)c(CN2CCN(c3ncccn3)CC2)c1O 93.4
C=C(C)[C@@H]1CCC(C)=C[C@H]1c1c(O)cc(CCCCC)c(CN2CCC(c3ccccc3)CC2)c1O 94.4
C=C(C)[C@@H]1CCC(C)=C[C@H]1c1c(O)cc(CCCCC)c(CN2CCN(CCO)CC2)c1O 97.5

Consider the record given below.
Please indicate viability at 24 h, 5 µM recorded for "C=C(C)[C@@H]1CCC(C)=C[C@H]1c1c(O)cc(CCCCC)c(CN2CCOCC2)c1O"
93.1

====

- ASSAY DETAILS: Cell viability assay in macrophage RAW264.7 cells (MTT)
- Format: cell-based
- PROTOCOL CONDITIONS: mouse, RAW264.7, 5 μM, read-out: % cell viability ± SD
I'd appreciate it if you could supply viability at 24 h, 5 µM values for the items below.
Numbers only, in %.

Known results for compounds:
C=C(C)[C@@H]1CCC(C)=C[C@H]1c1c(O)cc(CCCCC)c(CN2CCN(C)CC2)c1O 94.7
C=C(C)[C@@H]1CCC(C)=C[C@H]1c1c(O)cc(CCCCC)c(CN2CCN(C(C)=O)CC2)c1O 93.3
C=C(C)[C@@H]1CCC(C)=C[C@H]1c1c(O)cc(CCCCC)cc1O 95.5
C=C(C)[C@@H]1CCC(C)=C[C@H]1c1c(O)cc(CCCCC)c(CNc2cnccn2)c1O 93.6
C=C(C)[C@@H]1CCC(C)=C[C@H]1c1c(O)cc(CCCCC)c(CN2CCC(Cc3ccccc3)CC2)c1O 90.1

For each of the compounds below, note its viability at 24 h, 5 µM.
1. C=C(C)[C@@H]1CCC(C)=C[C@H]1c1c(O)cc(CCCCC)c(CN2CCN(c3ccc(Cl)cc3)CC2)c1O
2. C=C(C)[C@@H]1CCC(C)=C[C@H]1c1c(O)cc(CCCCC)c(CN2CCC(C(C)C)CC2)c1O
3. C=C(C)[C@@H]1CCC(C)=C[C@H]1c1c(O)c(CN2CCOCC2)c(CCCCC)c(CN2CCOCC2)c1O
4. C=C(C)[C@@H]1CCC(C)=C[C@H]1c1c(O)cc(CCCCC)c(CN2CCN(c3ccccc3)CC2)c1O
5. C=C(C)[C@@H]1CCC(C)=C[C@H]1c1c(O)cc(CCCCC)c(CN2CCN(CC)CC2)c1O
6. C=C(C)[C@@H]1CCC(C)=C[C@H]1c1c(O)cc(CCCCC)c(CN2CCN(C3CC3)CC2)c1O
7. C=C(C)[C@@H]1CCC(C)=C[C@H]1c1c(O)cc(CCCCC)c(CN2CCCCC2)c1O
8. C=C(C)[C@@H]1CCC(C)=C[C@H]1c1c(O)cc(CCCCC)c(CN2CCC(C(F)(F)F)CC2)c1O

[95.2, 92.8, 94.4, 94.5, 94.2, 89.3, 65.9, 94.1]

Please indicate viability at 24 h, 5 µM recorded for "C=C(C)[C@@H]1CCC(C)=C[C@H]1c1c(O)cc(CCCCC)c(CN2CCC(O)CC2)c1O"
93.8
